- EXPERIMENTAL DETAILS: NFAT Signaling Pathway (AID 444);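 also: carbachol stimulus at about its EC50 of 1 µM final; % is scaled to controls: 0 for no effect and ±100 for the full control effect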
- TEST SETTINGS: Jurkat NFAT-bla M1, carbachol, beta-lactamase ratio, 5 h; at 17.2 µM (top of the series) unless noted
Records with an inconclusive call do not appear. Calls of active or inactive are those of the source. Calls follow the shape of the dose curve; as a rule, active = well fitted curve in either direction with a large enough effect (not every such curve was filed as active); inconclusive = small, poorly fitted or top-dose-only effect, or another doubt; inactive = flat fitted curve, though single readings scatter.
MEASURED QUANTITY: activity change, negative = inhibition

# input Dear colleague, I am looking for the recorded activity change, negative = inhibition of the following molecule: CCOc1ccc(NC(=O)c2nn(C)cc2Br)cc1
# output 4.54% (inactive)

# input Need activity change, negative = inhibition of CCOC(=O)C1=C(N)n2c(s/c(=C\c3cccnc3)c2=O)=C(C(=O)OC)C1c1cccnc1 (configuration not stated) , thanks.
# output 23.6% (inactive)

# input For the molecule CCOC(=O)CSc1nc2ccccc2c(=O)n1C , what activity change, negative = inhibition is on record?
# output -11.5% (inactive)

# input Recorded activity change, negative = inhibition of Cc1nnc2n(-c3ccccc3)c(=O)c3c4c(sc3n12)COC(C(C)C)C4 (configuration not stated) , please.
# output -28.2% (inactive)

# input GET /values?readout=activity change, negative = inhibition&item= COc1cc(=O)n2c(-c3ccccc3)csc2n1
# output 0.0134% (inactive)

# input Requested field: activity change, negative = inhibition. Item: CCc1ccc2c(c1)C(C)=CC(C)(C)N2
# output 7.21% (inactive)

====

- TARGET OR SYSTEM: Cytochrome P450 2D6 (Homo sapiens) (UniProt P10635)
- Sequence (P10635 whole entry, looked up): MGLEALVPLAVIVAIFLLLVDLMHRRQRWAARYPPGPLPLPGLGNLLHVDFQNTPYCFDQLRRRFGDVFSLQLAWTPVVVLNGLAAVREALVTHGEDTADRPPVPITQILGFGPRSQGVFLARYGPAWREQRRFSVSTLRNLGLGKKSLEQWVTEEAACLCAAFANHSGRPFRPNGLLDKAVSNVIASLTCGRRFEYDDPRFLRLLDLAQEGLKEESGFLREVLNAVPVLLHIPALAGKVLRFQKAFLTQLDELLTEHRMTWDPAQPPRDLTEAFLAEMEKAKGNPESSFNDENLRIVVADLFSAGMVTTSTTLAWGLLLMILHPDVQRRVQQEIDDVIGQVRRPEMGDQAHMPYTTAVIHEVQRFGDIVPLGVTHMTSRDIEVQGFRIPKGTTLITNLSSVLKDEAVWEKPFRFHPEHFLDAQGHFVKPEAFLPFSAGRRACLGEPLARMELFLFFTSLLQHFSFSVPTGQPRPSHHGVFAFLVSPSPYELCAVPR
- EXPERIMENTAL DETAILS: qHTS Assay for Inhibitors and Substrates of Cytochrome P450 2D6 (AID 891); also: nearly all actives have a fitted effect of over 60% in size; also: potency is read from the fitted curve at half-maximal effect
- TEST SETTINGS: recombinant CYP2D6, luciferin-ME EGE luminescence; series mostly up to 57.1 µM
Inconclusive results are not listed. Calls of active or inactive are those of the source. Calls follow the shape of the dose curve; as a rule, active = well fitted inhibition curve with a large enough effect; inconclusive = small, poorly fitted or top-dose-only effect; inactive = no such curve, though single readings can be large or run the other way.
MEASURED QUANTITY: Potency

>>> recorded_value("CC(C)[C@@H](CC(=O)N[C@@H]1CCNC[C@H]1C(=O)N[C@H](CC(=O)N[C@@H](CCC(=O)O)CC(=O)O)Cc1c[nH]c2ccccc12)NC(=O)C[C@H](CO)NC(=O)[C@@H]1CCCC[C@H]1N")
"inactive"
>>> recorded_value("CC[C@H]1C(=O)OC[C@@H]1Cc1cncn1C")
"inactive"
>>> recorded_value("CC(C)C[C@@H](CC(=O)N[C@@H](CCC(=O)O)CC(=O)O)NC(=O)[C@@H]1CCCC[C@H]1NC(=O)C[C@H](CCCN)NC(=O)C[C@H](Cc1ccccc1)NC(=O)[C@@H]1CCCC[C@H]1N")
"inactive"
>>> recorded_value("C=C1CC[C@@H]2[C@](C)(CC[C@@H](O)[C@]2(C)CO)[C@@H]1C/C=C1/C(=O)OC[C@H]1O")
"inactive"
>>> recorded_value("NCCC[C@@H](CC(=O)N[C@@H]1CCNC[C@H]1C(=O)N[C@H](CC(=O)N[C@@H](CCC(=O)O)CC(=O)O)Cc1ccccc1)NC(=O)C[C@H](Cc1ccccc1)NC(=O)[C@@H]1CNCC[C@H]1N")
"inactive"

# input // query Potency value for entry CCCc1cc2c(n1CCc1ccc(Cl)cc1)C(C)C1CN(C(=O)c3ccccc3)C(C)(C(=O)OC)C21 (stereo not given)
# output 5.01 µM (active)

# input Form field: reported Potency of C[C@@H](C(=O)NCc1ccc(S(C)(=O)=O)cc1)[C@H]1C[C@]1(C)[C@H](NC(=O)OCc1ccccc1)c1ccccc1
# output 0.398 µM (active)

All values here come from PubChem BioAssay (NCATS).
